# experiment summary: In vitro stability in CD-1 mouse plasma at 37° C. (enantiomerization, D/H exchange, degradation)
# Format: in vitro ADME
# recorded conditions: CD-1, mouse, plasma, Calculated half-life t1/2, enantiomerization −+
measure name: half-life (h)
Quick note: give the figure in h, leave out the unit.

Ask | What value of measured half-life is listed for Cc1nc2cccc(N)c2c(=O)n1C1CCC(=O)NC1=O (single isomer, unassigned; (-)) [h−, reference compound] ?
Reply | 9.5

###

# experiment summary: In vitro stability in human plasma at 37° C. (enantiomerization, D/H exchange, degradation)
# Assay type: in vitro ADME
# recorded conditions: human, plasma, Calculated half-life t1/2, enantiomerization +−
# Procedure: (+)- and (−)-3-(5-Amino-2-methyl-4-oxoquinazolin-3(4H)-yl)-piperidine-2,6-dione and rac-3-(5-amino-2-methyl-4-oxoquinazolin-3(4H)-yl)-(3-^2H)-piperidine-2,6-dione (87% deuterium content at the C3-position and no detectable deuterium at the C5-position, 50:50 racemic mixture of (+)- and (−)-deuterated enantiomers) were incubated in CD-1 mouse plasma (K3EDTA as anticoagulant) or human plasma (K3EDTA as anticoagulant) at 37° C. in duplicates. […] Human and mouse plasma data were analyzed independently. […]
measure name: half-life (min)
Quick note: give the figure in min, leave out the unit.

Ask | What value of measured half-life is listed for Cc1nc2cccc(N)c2c(=O)n1C1CCC(=O)NC1=O (single isomer, unassigned; (-)) [h−, reference compound] ?
Reply | 180
